Target: mouse melanocortin-4 receptor (mouse, UniProt P56450 1-332)
Sequence (P56450 whole entry): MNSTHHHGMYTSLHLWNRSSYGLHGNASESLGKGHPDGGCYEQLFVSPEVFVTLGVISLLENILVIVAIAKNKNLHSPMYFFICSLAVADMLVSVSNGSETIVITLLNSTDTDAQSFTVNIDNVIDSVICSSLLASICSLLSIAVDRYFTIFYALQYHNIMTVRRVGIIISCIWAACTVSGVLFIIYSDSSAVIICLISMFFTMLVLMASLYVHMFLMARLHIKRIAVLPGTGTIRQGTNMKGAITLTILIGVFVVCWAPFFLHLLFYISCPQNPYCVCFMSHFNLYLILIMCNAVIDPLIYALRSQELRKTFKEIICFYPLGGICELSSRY
Test: cell-based or functional assay
Non-standard residues stand in square brackets, D forms with d. dPhe(4-I) = N[C@H](Cc1ccc(I)cc1)C(=O)O; d2Nal = N[C@H](Cc1ccc2ccccc2c1)C(=O)O; Bta = N[C@@H](Cc1csc2ccccc12)C(=O)O; Tic = O=C(O)[C@@H]1Cc2ccccc2CN1
PROPERTY MEASURED: cAMP AlphaScreen, Schild analysis against NDP-MSH (blocks m5+m3): antagonist pA2

Q: Output measured cAMP AlphaScreen, Schild analysis against NDP-MSH (blocks m5+m3): antagonist pA2 for this item: Ac-[d2Nal]R[dPhe(4-I)][Tic]-NH2 [compound 24]
Result: 6.4 -Log(Ki)

Q: Provide measured cAMP AlphaScreen, Schild analysis against NDP-MSH (blocks m5+m3): antagonist pA2 value, entry: HRFX (HELM PEPTIDE1{[ac].H.R.[O=C([C@@H](Cc1ccc(I)cc1)N[*:1])[*:2]].[Tic].[am]}$$$$V2.0; SMILES CC(=O)N[C@@H](Cc1c[nH]cn1)C(=O)N[C@@H](CCCNC(=N)N)C(=O)N[C@H](Cc1ccc(I)cc1)C(=O)N1Cc2ccccc2C[C@H]1C(N)=O) [Ac-His-Arg-(pI)DPhe-Tic-NH2]
Result: 7 -Log(Ki)

Q: Indicate its recorded cAMP AlphaScreen, Schild analysis against NDP-MSH (blocks m5+m3): antagonist pA2; the binder in question is Ac-FR[dPhe(4-I)][Bta]-NH2 [compound 15]
Result: 5.7 -Log(Ki)

Q: Please supply the value of reported cAMP AlphaScreen, Schild analysis against NDP-MSH (blocks m5+m3): antagonist pA2 for the item Ac-RR[dPhe(4-I)][Bta]-NH2 [compound 10]
Result: 6.6 -Log(Ki)

Q: Please give the documented cAMP AlphaScreen, Schild analysis against NDP-MSH (blocks m5+m3): antagonist pA2 of Ac-HR[dPhe(4-I)][Bta]-NH2 [compound 11]
Result: 6.4 -Log(Ki)
